The following compounds are shown together with reported inhibition values.
target: Pantothenate synthetase (Mycobacterium tuberculosis (strain ATCC 25618 / H37Rv)) (UniProt P9WIL5); assay: Coupled enzyme confirmation of inhibitors against recombinant Mtb PanC (AID 375); settings: coupled enzyme assay; at 10 µM, stronger effect = higher value;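 note: 0% = full reaction with vehicle and 100% = no enzyme background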
Sequence (P9WIL5 whole entry, looked up): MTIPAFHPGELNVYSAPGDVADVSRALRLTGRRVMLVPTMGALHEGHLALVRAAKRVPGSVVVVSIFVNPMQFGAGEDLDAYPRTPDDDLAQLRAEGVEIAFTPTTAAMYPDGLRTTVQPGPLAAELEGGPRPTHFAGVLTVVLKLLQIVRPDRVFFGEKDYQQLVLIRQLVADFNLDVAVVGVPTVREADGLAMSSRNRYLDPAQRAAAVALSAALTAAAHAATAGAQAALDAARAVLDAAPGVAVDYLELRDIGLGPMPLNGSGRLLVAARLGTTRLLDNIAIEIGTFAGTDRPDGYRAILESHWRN
Please give a number only; it is taken to be in %.

Past entries and their recorded results:
* Cn1c(=O)[nH]c(=O)c2c1nc(Br)n2CCCSc1nc2ccccc2o1 | 0
* COc1cc(OC)cc(OCC(O)Cn2cnc(-c3ccccc3)c2)c1 (centres undefined) | 0
* O=C(Nc1ccc(N2CCOCC2)cc1)c1cccc(S(=O)(=O)N2CCCC2)c1 | 0
* Cc1ccc(S(=O)(=O)Cc2ccc(C(=O)N3CCN(Cc4ccccc4)CC3)o2)cc1 | 3
* O=C(CN1CCC(NC(=O)c2ccc(F)cc2)CC1)NCc1ccccc1F | 5

Summary for this compound, `COc1cccc(Oc2cn[nH]c2-c2ccc(O)cc2O)c1` : inhibition is 0

Summary for this compound, `NC(=O)c1ccccc1NC(=O)CCCN1C(=O)CCC1=O` : inhibition is 10

Summary for this compound, `COc1cccc(Oc2ccc(N)cc2)c1` : inhibition is 0

Summary for this compound, CCNCC(O)COCC(O)CNCC (centres undefined) : inhibition is 0

Summary for this compound, `S=C(c1ccc(-c2cc(Cl)ccc2Cl)o1)N1CCOCC1` : inhibition is 0

Summary for this compound, `C=CCN1C(=O)CS/C1=C(\C#N)S(=O)(=O)c1ccc(C)cc1` : inhibition is 0

Summary for this compound, `COc1ccc(NCc2nnc(SCC(=O)Nc3cc(C)cc(C)c3)o2)cc1` : inhibition is 0

Summary for this compound, `CN1CCc2c(sc3c2c(=O)n(-c2cccc(Cl)c2)c2nncn32)C1` : inhibition is 0

Summary for this compound, CC(=O)Oc1ccc(CCC(C)OC(C)=O)cc1 (centres undefined) : inhibition is 8
